tested on: Wolbachia pipientis; assay: Anti-Wolbachia Cell-Based Screen; assay type: functional; parameters: scale not given: in the data most compounds retested in dose-response had high values; conditions: 5 µM
The whole screen tested about 48,000 compounds, of which about 13,000 (27%) showed an effect of 50% or more. The list shows a part of the results.
Provide the recorded Percent Effect for the entries that follow.
I only need the number, in %, no unit after it.

Q: Answer briefly: Percent Effect recorded on Wolbachia pipientis for CC(C)CC(C)NC1CCN(c2ccc(-c3cscn3)cc2)CC1 (stereo not drawn)
Result: 3.924

Q: Output reported Percent Effect of the compound O=C(CCn1cncn1)NCC(c1ccco1)N1CCCCC1 (stereo not drawn) on Wolbachia pipientis.
Result: 106.2

Q: Report value only: Percent Effect, Wolbachia pipientis, CCC1CCCCN1C(=O)Cn1nc(-c2ccc(C)s2)cc(N)c1=O (stereo not drawn)
Result: 132.6

Q: Lab note: Wolbachia pipientis assay, enter Percent Effect for COCc1nc(CNc2cccc(-c3nc(C)c(C)o3)c2)cs1 here
Result: -0.1423

Q: For Wolbachia pipientis, give the measured Percent Effect of the entry CN(C)C(=O)[C@H]1CCS(=O)(=O)[C@@H]2CN(c3ncc(F)cn3)C[C@H]12
Result: 102

Q: Give Percent Effect; test system Wolbachia pipientis; compound CCc1cnc(N2C[C@@H]3[C@@H](C(=O)N(C)C)CCS(=O)(=O)[C@@H]3C2)nc1
Result: 108.3

Q: Recall the reported Percent Effect of CCC1CCCCN1C(=O)Cn1nc(-c2ccc(C)o2)cc(N)c1=O (stereo not drawn) when tested on Wolbachia pipientis.
Result: 125.9

Q: Tell me Percent Effect of CCN(c1ccc(C(=O)N2CCCC(C)C2)cc1)S(=O)(=O)CC (stereo not drawn) when tested on Wolbachia pipientis.
Result: -3.775

Q: Give Percent Effect for CCN(c1ccc(C(=O)N2CCC(C)CC2)cc1)S(=O)(=O)CC tested on Wolbachia pipientis.
Result: 137.9

Q: Jot down Percent Effect (Wolbachia pipientis) of CC(C)[C@H]1COC(=O)N1Cc1nccn1C1CC1 .
Result: 4.052

Q: Look up and report measured Percent Effect (Wolbachia pipientis) for the following compound: Cc1ncc(CC(=O)N2CCCCC2CCN2CCCC2)c(=O)[nH]1 (stereo not drawn)
Result: -18.36

Q: Send back Wolbachia pipientis Percent Effect of CNC(=O)C1CCCCN1C(=O)Cc1csc(-c2ccc(C)o2)n1 (stereo not drawn) only.
Result: 7.331

Q: Consider the compound COc1cc(C)c(C(C)Nc2ncc(C(N)=O)cc2Cl)cc1OC (stereo not drawn) tested on Wolbachia pipientis; state its Percent Effect.
Result: -11.51

Q: Look up and report Percent Effect, with Wolbachia pipientis as system, for Cc1ccc2nc(C3CCCN(Cc4ccccc4)C3)nc(O)c2c1 (stereo not drawn)
Result: 104.3

Q: Enter Percent Effect (test system Wolbachia pipientis) for Cc1ccc(-n2nnnc2SCN2CCCCC2=O)cc1C
Result: -13.91

Q: Using Wolbachia pipientis as the test system, report measured Percent Effect of Cc1noc(C)c1CN1CCC2(CCN(Cc3cccc(F)c3)CC2)C1.O=C(O)C(F)(F)F.O=C(O)C(F)(F)F .
Result: 108.5

Q: # return Percent Effect for NC(=O)N1CCC2(CCN(Cc3cccc(F)c3)CC2)CC1.O=C(O)C(F)(F)F , test system: Wolbachia pipientis
Result: 7.684

Q: Answer briefly: Percent Effect recorded on Wolbachia pipientis for Cc1cc(C)n(C2CCCN(C(=O)Cn3ccc(=O)n(C)c3=O)C2)n1 (stereo not drawn)
Result: 5.694

Q: Return reported Percent Effect for target or system Wolbachia pipientis, item CCN(c1ccc(C(=O)N2CCC(C(N)=O)CC2)cc1)S(=O)(=O)CC .
Result: 125.1

Q: Specify the recorded Percent Effect for Cc1cnc(N2C[C@@H]3[C@@H](C(=O)NC(C)C)CCS(=O)(=O)[C@@H]3C2)nc1 , system: Wolbachia pipientis.
Result: -24.89

Q: Return reported Percent Effect for target or system Wolbachia pipientis, item c1cc(CN2CCCCC2c2ccc(Nc3cnccn3)nc2)ccn1 (stereo not drawn) .
Result: 159

Q: For Wolbachia pipientis, give the measured Percent Effect of the entry Fc1ccc(CN2C[C@@H]3OCCN(CCN4CCCC4)[C@@H]3C2)cc1.O=C(O)C(F)(F)F.O=C(O)C(F)(F)F.O=C(O)C(F)(F)F
Result: -5.638

Q: Lab note: record Percent Effect of CC(C)(C)OC(=O)NCC1CCCCN1Cc1cccnc1 (stereo not drawn) tested on Wolbachia pipientis.
Result: 4.728

Q: Fill: Percent Effect (Wolbachia pipientis) for this compound CCS(=O)(=O)N(C)c1ccc(C(=O)N2CCCC(C)C2)cc1 (stereo not drawn)
Result: -1.245

Q: Please look at O=C(O)[C@]12CCCN(Cc3cccnc3)[C@@H]1CCN(c1cnccn1)C2 and tell me its recorded Percent Effect on Wolbachia pipientis.
Result: -19.78

Q: Report value: Percent Effect, system: Wolbachia pipientis, compound: CCOc1cc(C)ccc1NS(=O)(=O)c1cc(C)c(C(=O)O)s1
Result: -7.525

Q: Lab note: record Percent Effect of CCc1cnc(N2C[C@@H]3[C@@H](C(=O)NC(C)C)CCS(=O)(=O)[C@@H]3C2)nc1 tested on Wolbachia pipientis.
Result: -2.445

Q: Recall the reported Percent Effect of OCCOc1ccc(NCc2cccc3cccnc23)cn1 on Wolbachia pipientis and write it down.
Result: -13.71

Q: Provide the reported Percent Effect (system: Wolbachia pipientis) for CCOC(=O)CC1CCCCN1C(=O)c1cc(=O)[nH]c(=O)[nH]1 (stereo not drawn)
Result: 3.722

Q: // output Percent Effect; input CC1CCCN(C(=O)Cn2cc(I)cn2)C1 (stereo not drawn) ; system Wolbachia pipientis
Result: 2.299

Q: Please look at O=C1NC[C@@]2(C(=O)O)CN(Cc3cccc(CN4CCOCC4)c3)C[C@@H]12 and tell me its recorded Percent Effect on Wolbachia pipientis.
Result: -10.55

Q: Report measured Percent Effect on Wolbachia pipientis; entry: CCc1cnc(N2C[C@@H]3[C@@H](C(=O)NCC(C)C)CCS(=O)(=O)[C@@H]3C2)nc1
Result: -5.453

Q: Recall the reported Percent Effect of Cc1ccc(C(=O)N2CC(C(N)=O)O[C@H](C)C2)c(C)c1 (stereo partly drawn) on Wolbachia pipientis and write it down.
Result: -8.345

Q: Report the value of Percent Effect obtained on Wolbachia pipientis for CC(=O)NCc1nc(CCOc2ccc(Cl)cc2)no1 .
Result: -0.6631

Q: System Wolbachia pipientis. Read-out Percent Effect. Item COc1cc(CN(C)C(=O)Nc2cc(C)on2)ccc1SC . Report value.
Result: -6.064

Q: Send back Wolbachia pipientis Percent Effect of CCOC(=O)CC1CCCCN1C(=O)c1cc(C)oc1C (stereo not drawn) only.
Result: 1.644

Q: Please look at Cc1cnc(N2C[C@@H]3[C@@H](C(=O)NCC(C)C)CCS(=O)(=O)[C@@H]3C2)nc1 and tell me its recorded Percent Effect on Wolbachia pipientis.
Result: -2.009

Q: Retrieve Percent Effect on Wolbachia pipientis; query Cc1cc(-c2cc(N)c(=O)n(CC(=O)N3CCCC(C)C3)n2)c(C)o1 (stereo not drawn)
Result: 135.5

Q: Provide Percent Effect, system Wolbachia pipientis, entry COc1ccc(Br)c(C(=O)N2CCCC(c3nc(C)no3)C2)c1 (stereo not drawn)
Result: -8.45

Q: Give Percent Effect for O=C(CCn1cncn1)NCC(c1ccco1)N1CCCC1 (stereo not drawn) tested on Wolbachia pipientis.
Result: 144.5

Q: GET Percent Effect | system: Wolbachia pipientis | item: CCC1CCCCN1C(=O)Cn1nc(-c2cc(C)oc2C)cc(N)c1=O (stereo not drawn)
Result: 172.7

Q: Give measured Percent Effect for CC(C)(C)OC(=O)NCC1CCCCN1Cc1ccncc1 (stereo not drawn) (Wolbachia pipientis).
Result: -3.492

Q: Specify Percent Effect for CC(C)NC(=O)[C@H]1CCS(=O)(=O)[C@@H]2CN(c3ncccn3)C[C@H]12 , system Wolbachia pipientis.
Result: -3.711
